Assignment: determine reported IC50 for the given compounds.
molecular target: CDK4/CyclinD1 (Homo sapiens, UniProt P11802); assay: ADP-Glo kinase assay, CDK4; assay type: biochemical; settings: 16.3 nM CDK4/CyclinD1, 200 μM ATP (Km), DYRKtide peptide, 120 min; read-out: inhibitory activity (IC50, nM) CDK4
Sequence (P11802 whole entry, species assumed): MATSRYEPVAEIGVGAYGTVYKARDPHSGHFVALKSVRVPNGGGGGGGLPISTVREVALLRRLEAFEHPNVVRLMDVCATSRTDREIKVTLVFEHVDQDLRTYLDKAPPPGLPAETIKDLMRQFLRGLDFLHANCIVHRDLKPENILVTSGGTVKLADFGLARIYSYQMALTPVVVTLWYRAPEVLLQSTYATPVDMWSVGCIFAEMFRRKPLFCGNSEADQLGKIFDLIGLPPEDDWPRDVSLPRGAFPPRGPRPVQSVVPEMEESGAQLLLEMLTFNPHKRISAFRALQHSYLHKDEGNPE
Sequence (P24385 whole entry partner, species assumed): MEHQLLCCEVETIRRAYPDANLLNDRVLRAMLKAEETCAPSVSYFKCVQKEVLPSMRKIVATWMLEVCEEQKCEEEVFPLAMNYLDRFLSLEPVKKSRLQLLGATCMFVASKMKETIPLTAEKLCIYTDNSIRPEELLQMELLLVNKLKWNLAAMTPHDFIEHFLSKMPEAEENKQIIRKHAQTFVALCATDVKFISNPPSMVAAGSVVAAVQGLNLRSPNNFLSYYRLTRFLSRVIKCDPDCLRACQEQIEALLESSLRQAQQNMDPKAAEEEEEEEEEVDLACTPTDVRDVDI

Provide measured IC50 on CDK4/CyclinD1 (Homo sapiens, UniProt P11802) for C[C@@H]1Cc2cnc(NCc3ccn(C)n3)nc2CN1C(=O)N[C@H](CN(C)C)c1ccccc1 [Example 2] please. > 10000 nM

Provide measured IC50 on CDK4/CyclinD1 (Homo sapiens, UniProt P11802) for C[C@H](Nc1ncc2c(n1)CN(C(=O)N[C@H](CN(C)C)c1ccccc1)[C@H](C)C2)c1ccccn1 [Example 6] please. > 10000 nM
